// data source = patent US20210395650A1

Below, each entry is listed alongside its reported protease activity in the course of time of storage at 37° C..
biological target: Savinase® 16.0L (Lederbergia lenta); construct: purchased Sigma-Aldrich; assay: Protease storage stability in liquid formulations at 37° C. (Suc-AAPF-pNA assay); format: biochemical; conditions: base formulation II, 2.5 wt% compound, 0.7 wt% Savinase 16.0 L; 14 d
Counter-ions that a name gives are not always drawn.
Observed Property: protease activity in the course of time of storage at 37° C. (%)

INSERT INTO results (compound, measured_target, recorded_number) VALUES
  ('O=C(CC(O)(CC(=O)OCc1ccccc1)C(=O)OCc1ccccc1)OCc1ccccc1 [A.8, Tribenzylcitrate]', 'Savinase® 16.0L (Lederbergia lenta)', 88),
  ('CCOC(=O)CC(CC(=O)OCC)(OC(C)=O)C(=O)OCC [A.5, Acetyltriethylcitrate]', 'Savinase® 16.0L (Lederbergia lenta)', 94),
  ('CCOC(=O)CC(O)(CC(=O)OCC)C(=O)OCC [A.1, Triethylcitrate]', 'Savinase® 16.0L (Lederbergia lenta)', 93),
  ('O=C(O)CC(O)(CC(=O)O)C(=O)O [B.2, citric acid trisodium salt, reference compound]', 'Savinase® 16.0L (Lederbergia lenta)', 75),
  ('CC(=O)OCC(COC(C)=O)OC(C)=O [B.4, glyceroltriacetate, reference compound]', 'Savinase® 16.0L (Lederbergia lenta)', 73),
  ('CCOC(=O)CC(O)(CC(=O)O)C(=O)O (stereo not drawn) [A.6, Monoethylcitrate]', 'Savinase® 16.0L (Lederbergia lenta)', 95);

---

target: Savinase® 16.0L (Lederbergia lenta, UniProt P29600); construct: purchased Sigma-Aldrich; assay: Protease storage stability in liquid formulations at 37° C. (Suc-AAPF-pNA assay); assay type: biochemical; conditions: base formulation V, 2.0 wt% compound, 0.7 wt% Savinase 16.0 L; 7 d
Below, each entry is listed alongside its reported protease activity in the course of time of storage at 37° C..
Observed Property: protease activity in the course of time of storage at 37° C. (%)

INSERT INTO results (compound, recorded_number) VALUES
  ('O=C(O)CC(O)(CC(=O)O)C(=O)O [B.1, citric acid, reference compound]', 86),
  ('CCOC(=O)CC(O)(CC(=O)OCC)C(=O)OCC [A.1, Triethylcitrate]', 90),
  ('CCCCOC(=O)CC(O)(CC(=O)OCCCC)C(=O)OCCCC [A.3, Tributylcitrate]', 93),
  ('O=C(CC(O)(CC(=O)OCc1ccccc1)C(=O)OCc1ccccc1)OCc1ccccc1 [A.8, Tribenzylcitrate]', 92);

---

Below, each entry is listed alongside its reported protease activity in the course of time of storage at 37° C..
Target: Savinase® 16.0L (Lederbergia lenta)
Construct: purchased Sigma-Aldrich
Experiment: Protease storage stability in liquid formulations at 37° C. (Suc-AAPF-pNA assay)
Type: biochemical
Conditions: base formulation III, 2.0 wt% compound, 0.7 wt% Savinase 16.0 L; 3 d
Protocol: The storage stability of protease was assessed at 37° C. Base test formulations were manufactured by making base formulations I to V by mixing the components according to Table 1. Protease used: Savinase® 16.0L (CAS-No. 9014-01-1, EC-No. 232-752-2) was purchased from Sigma-Aldrich. […] The proteolytic activity values provided in Table 3 were calculated referring to the 100% value determined in the reference formulation at the time 0. […]
Observed Property: protease activity in the course of time of storage at 37° C.

INSERT INTO results (compound, measured_target, result) VALUES
  ('O=C(O)CC(O)(CC(=O)O)C(=O)O [B.1, citric acid, reference compound]', 'Savinase® 16.0L (Lederbergia lenta)', '92%'),
  ('CCOC(=O)CC(O)(CC(=O)OCC)C(=O)OCC [A.1, Triethylcitrate]', 'Savinase® 16.0L (Lederbergia lenta)', '98%'),
  ('CCCOC(=O)CC(O)(CC(=O)OCCC)C(=O)OCCC [A.2, Tripropylcitrate]', 'Savinase® 16.0L (Lederbergia lenta)', '100%'),
  ('CCOC(=O)CC(CC(=O)OCC)(OC(C)=O)C(=O)OCC [A.5, Acetyltriethylcitrate]', 'Savinase® 16.0L (Lederbergia lenta)', '97%'),
  ('CCOC(=O)C(=O)OCC [B.3, diethyloxalate, reference compound]', 'Savinase® 16.0L (Lederbergia lenta)', '92%'),
  ('CCOC(=O)CC(O)(CC(=O)O)C(=O)O (stereo not drawn) [A.6, Monoethylcitrate]', 'Savinase® 16.0L (Lederbergia lenta)', '96%');

---

biological target: Savinase® 16.0L (Lederbergia lenta, UniProt P29600); construct: purchased Sigma-Aldrich; assay: Protease storage stability in liquid formulations at 37° C. (Suc-AAPF-pNA assay); format: biochemical; settings: base formulation III, 2.0 wt% compound, 0.7 wt% Savinase 16.0 L; T0
Observed Property: protease activity in the course of time of storage at 37° C.

INSERT INTO measurements (molecule, result) VALUES
  ('CCOC(=O)CC(O)(CC(=O)OCC)C(=O)OCC [A.1, Triethylcitrate]', '100%'),
  ('CCCOC(=O)CC(O)(CC(=O)OCCC)C(=O)OCCC [A.2, Tripropylcitrate]', '102%'),
  ('CCOC(=O)CC(O)(CC(=O)O)C(=O)O (stereo not shown) [A.6, Monoethylcitrate]', '99%'),
  ('CCOC(=O)CC(CC(=O)OCC)(OC(C)=O)C(=O)OCC [A.5, Acetyltriethylcitrate]', '99%');

---

Below, each entry is listed alongside its reported protease activity in the course of time of storage at 37° C..
Target: Savinase® 16.0L (Lederbergia lenta, UniProt P29600)
Construct: purchased Sigma-Aldrich
Sequence (P29600 1-269): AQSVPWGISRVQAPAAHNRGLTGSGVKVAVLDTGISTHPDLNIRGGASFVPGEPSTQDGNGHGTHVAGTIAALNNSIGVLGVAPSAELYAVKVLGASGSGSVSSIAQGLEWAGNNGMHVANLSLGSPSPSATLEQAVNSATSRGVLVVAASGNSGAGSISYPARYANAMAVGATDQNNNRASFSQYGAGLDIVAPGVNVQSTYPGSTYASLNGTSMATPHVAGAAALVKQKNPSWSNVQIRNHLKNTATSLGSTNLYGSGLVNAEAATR
Assay: Protease storage stability in liquid formulations at 37° C. (Suc-AAPF-pNA assay)
Format: biochemical
Settings: base formulation I, 2.5 wt% compound, 0.7 wt% Savinase 16.0 L; 14 d
Observed Property: protease activity in the course of time of storage at 37° C. (%)

INSERT INTO measurements (compound, unit_tag, recorded_number) VALUES
  ('CC(=O)OCC(COC(C)=O)OC(C)=O [B.4, glyceroltriacetate, reference compound]', '%', 70),
  ('CCCOC(=O)CC(O)(CC(=O)OCCC)C(=O)OCCC [A.2, Tripropylcitrate]', '%', 91),
  ('O=C(O)CC(O)(CC(=O)O)C(=O)O [B.1, citric acid, reference compound]', '%', 76),
  ('CCOC(=O)CC(CC(=O)OCC)(OC(C)=O)C(=O)OCC [A.5, Acetyltriethylcitrate]', '%', 90),
  ('CCOC(=O)C(=O)OCC [B.3, diethyloxalate, reference compound]', '%', 70);
